test: Approximate solvent solubility (ASS); assay type: physicochemical; settings: organic solvents and solvent systems, 40 °C, organic solvent or mixture, thermodynamic from solid, stirring at 40 °C; a few solvents classified as potential antisolvents; read-out: approximate solubility in antisolvents
MEASURED QUANTITY: solubility

What value of solubility has been recorded for this entry: Cc1ncsc1-c1ccc(CNC(=O)C2CC(O)CN2C(=O)C(NC(=O)C2(F)CC2)C(C)(C)C)c(OCCOc2ccc(CN3CCN(c4cc(-c5ccccc5O)nnc4N)CC3)cc2)c1 (stereo not shown)
< 5000 µg/mL

---

assay: Approximate solvent solubility (ASS); type: physicochemical; conditions: organic solvents and solvent systems, 40 °C, organic solvent or mixture, thermodynamic from solid, stirring at 40 °C; solvents in which the compound was soluble; read-out: approximate solubility in organic solvents
Field: solubility. Provide a value for each of the compounds that follow.

Quick check: solubility of C=C[C@@H]1C[C@]1(NC(=O)[C@@H]1C[C@@H](Oc2cc(-c3csc(NC(=O)C(C)C)n3)nc3c(Br)c(OC)ccc23)CN1C(=O)[C@@H](NC(=O)OC1CCCC1)C(C)(C)C)C(=O)O [BI201335] ?
75 to 400 mg/mL

Next up: Cc1ncsc1-c1ccc(CNC(=O)C2CC(O)CN2C(=O)C(NC(=O)C2(F)CC2)C(C)(C)C)c(OCCOc2ccc(CN3CCN(c4cc(-c5ccccc5O)nnc4N)CC3)cc2)c1 (centres unmarked) [ACBI1]
50 to 400 mg/mL

These measurements were taken from paper PMC12135943.
